- protocol.details: in vivo
- Parameters: species or system SD rats
- assay.setup: male, SD, rat, po, 40 mg/kg, pH 5, Cmax
property.name: Cmax (ng/mL)
Answers are plain numbers, in ng/mL.

GET /value?item= `NCCO` &field=Cmax returns 27100

----------
- protocol.details: in vivo
- Design: species or system SD rats
- assay.setup: female, SD, rat, po, 40 mg/kg, pH 7.4, Cmax
property.name: Cmax

// sample `NCCO` , its Cmax was 25000 ng/mL

----------
Provide the recorded pIC50 for the entries that follow.
Sequence of the target: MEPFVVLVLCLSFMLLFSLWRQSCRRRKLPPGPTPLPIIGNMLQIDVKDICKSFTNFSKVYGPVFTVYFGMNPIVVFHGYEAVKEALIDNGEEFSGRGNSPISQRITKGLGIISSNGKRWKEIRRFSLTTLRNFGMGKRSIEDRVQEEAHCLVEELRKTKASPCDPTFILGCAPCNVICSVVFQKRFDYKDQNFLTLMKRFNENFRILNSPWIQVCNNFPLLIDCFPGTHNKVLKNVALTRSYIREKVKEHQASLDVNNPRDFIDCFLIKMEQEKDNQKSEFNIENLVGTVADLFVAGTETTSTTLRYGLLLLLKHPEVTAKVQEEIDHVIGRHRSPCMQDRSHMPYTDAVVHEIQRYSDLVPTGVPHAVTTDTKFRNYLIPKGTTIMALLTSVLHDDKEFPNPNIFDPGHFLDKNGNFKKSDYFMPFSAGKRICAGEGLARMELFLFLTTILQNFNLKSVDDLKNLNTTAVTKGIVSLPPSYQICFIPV
pIC50: −log10 of the molar value.

- compound.smiles: "NCCOP(=O)(O)O"
  result: "< 4.00"

Data point: `NCCO` ; pIC50 = < 4.00

----------
Field: pIC50. Provide a value for each of the compounds that follow.
- measurement.target: UniProtKB P11712
- Sequence (P11712 whole entry): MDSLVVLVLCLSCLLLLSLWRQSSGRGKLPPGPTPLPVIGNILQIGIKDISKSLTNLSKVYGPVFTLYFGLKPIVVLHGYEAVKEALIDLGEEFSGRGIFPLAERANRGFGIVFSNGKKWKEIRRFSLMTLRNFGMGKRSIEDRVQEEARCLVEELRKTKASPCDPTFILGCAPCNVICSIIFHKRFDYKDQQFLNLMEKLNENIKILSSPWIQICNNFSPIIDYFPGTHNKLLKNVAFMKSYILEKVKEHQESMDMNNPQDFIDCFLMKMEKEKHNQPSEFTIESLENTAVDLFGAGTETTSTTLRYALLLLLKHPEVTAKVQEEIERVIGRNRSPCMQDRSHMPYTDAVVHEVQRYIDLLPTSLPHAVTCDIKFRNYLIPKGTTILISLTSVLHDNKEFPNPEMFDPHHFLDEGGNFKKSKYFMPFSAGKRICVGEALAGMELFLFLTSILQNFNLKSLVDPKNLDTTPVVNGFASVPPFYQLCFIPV
pIC50: −log10 of the molar value.

- compound.smiles: "NCCOP(=O)(O)O"
  measurement.target: "UniProtKB P11712"
  property.name: "pIC50"
  result: "< 4.00"

Alright, here's another compound for you.
Let me check: `NCCO` , system UniProtKB P11712, measured pIC50 is < 4.00

----------
- protocol.details: in vivo
- Design: species or system SD rats
- assay.setup: female, SD, rat, po, 40 mg/kg, pH 5
- Text: These formulations differ in pH and/or acid used to adjust the pH.
property.name: Tmax (min)
Answers are plain numbers, in min.

The compound `NCCO` showed Tmax equal to 19.8

----------
- measurement.target: UniProt P08684
- Sequence (P08684 whole entry): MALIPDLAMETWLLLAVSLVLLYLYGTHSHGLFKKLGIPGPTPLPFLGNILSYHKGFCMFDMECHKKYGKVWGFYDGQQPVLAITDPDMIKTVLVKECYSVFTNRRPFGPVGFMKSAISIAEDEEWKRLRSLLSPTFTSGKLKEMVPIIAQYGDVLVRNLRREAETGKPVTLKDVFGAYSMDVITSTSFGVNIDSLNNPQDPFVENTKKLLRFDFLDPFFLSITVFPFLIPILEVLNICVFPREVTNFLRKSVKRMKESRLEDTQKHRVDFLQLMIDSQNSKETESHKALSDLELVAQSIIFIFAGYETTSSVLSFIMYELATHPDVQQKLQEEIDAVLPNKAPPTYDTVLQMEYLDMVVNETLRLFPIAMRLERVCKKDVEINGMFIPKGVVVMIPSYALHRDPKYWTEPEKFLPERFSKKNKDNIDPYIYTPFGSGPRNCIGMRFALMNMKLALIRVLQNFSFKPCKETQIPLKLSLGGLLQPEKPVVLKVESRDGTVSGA
- protocol.details: CYP inhibition in human liver microsomes
pIC50: −log10 of the molar value.
property.name: pIC50

Just so you know, measured pIC50 for `NCCOP(=O)(O)O` came out at < 4.00

----------
- protocol.details: in vivo
- Parameters: species or system SD rats
- assay.setup: male, SD, rat, po, 40 mg/kg, pH 7.4
property.name: Tmax (min)
Give bare numbers, in min.

In plain terms, NCCO [Etn, monoethanolamine] has a documented Tmax of 19.8

----------
- measurement.target: UniProt P08684
- protocol.details: CYP inhibition in human liver microsomes
- assay.setup: 3A4-mida: CYP3A4 substrate midazolam, human liver microsomes
property.name: IC50

Record `NCCOP(=O)(O)O` , field IC50: > 100 µM
